System: brain cancer cell lines
assay.protocol: Cell based assay, cell viability (CellTiter-Glo), brain cancer cell lines
run.conditions: Homo sapiens, U138-MG; U-138 MG cell line; read-out: IC50, Brain cancer cell line U-138 MG
pIC50: −log10 of the molar value.
pIC50 values by entry
quantity.kind: pIC50

compound	measured
CC(=O)c1c([S+]([O-])Cc2c(F)cccc2Cl)[nH]c2c(Br)ccc(Cl)c2c1=O (stereo not shown)	5.84
CC(=O)c1c([S+]([O-])Cc2ccccc2)n(C(=O)c2ccc(Br)cc2)c2c(Br)ccc(Cl)c2c1=O (stereo not shown)	< 5.00
CC(=O)c1c([S+]([O-])Cc2cccc(I)c2)[nH]c2c(Br)ccc(Cl)c2c1=O (stereo not shown)	< 5.70
Cc1cc(C[S+]([O-])c2[nH]c3c(Cl)ccc(Cl)c3c(=O)c2C(=O)c2ccccc2)no1 (stereo not shown)	< 5.00
CC(=O)c1c(SCc2ccccc2)n(C(=O)c2ccc(Br)cc2)c2c(Br)ccc(Cl)c2c1=O	< 5.00
CC(=O)c1c(S(C)(=O)=O)n(C(=O)c2ccc(Br)cc2)c2c(Br)ccc(Cl)c2c1=O	< 5.00
CSc1c(C(C)=O)c(=O)c2c(Cl)ccc(Br)c2n1S(=O)(=O)c1ccc(Cl)cc1	< 5.00
CC(=O)c1c([S+]([O-])c2ccccc2)[nH]c2c(Br)ccc(Cl)c2c1=O (stereo not shown)	< 5.00
CC(=O)c1c([S+]([O-])Cc2ccc([S+]([O-])C(F)(F)F)cc2)[nH]c2c(Br)ccc(Cl)c2c1=O (stereo not shown)	5.84
CC(=O)c1c([S+]([O-])Cc2ccc(I)cc2)[nH]c2c(Cl)ccc(Cl)c2c1=O (stereo not shown)	< 5.70
COc1cccc(C[S+]([O-])c2[nH]c3c(Br)ccc(Cl)c3c(=O)c2C(C)=O)c1 (stereo not shown)	< 5.70
COc1ccccc1[S+]([O-])c1[nH]c2c(Br)ccc(Cl)c2c(=O)c1C(C)=O (stereo not shown)	< 5.70
Cc1cc(C[S+]([O-])c2[nH]c3c(Cl)ccc(Cl)c3c(=O)c2C(=O)C(C)C)no1 (stereo not shown)	5.89
CC(=O)c1c(S)[nH]c2c(Br)ccc(Cl)c2c1=O	< 5.00
CC(=O)c1c([S+]([O-])Cc2ccc(C(F)(F)F)nc2C)[nH]c2c(Br)ccc(Cl)c2c1=O (stereo not shown)	5.91
CC(=O)c1c([S+](C)[O-])n(C(C)=O)c2c(Br)ccc(Cl)c2c1=O (stereo not shown)	< 5.00
CC(=O)c1c([S+](C)[O-])n(C(=O)c2ccc(Br)cc2)c2c(Br)ccc(Cl)c2c1=O (stereo not shown)	5.90
CC(=O)c1c([S+]([O-])Cc2ccc(C(=O)c3ccccc3)cc2)[nH]c2c(Br)ccc(Cl)c2c1=O (stereo not shown)	< 5.70
CSc1c(C(C)=O)c(=O)c2c(Cl)ccc(Br)c2n1S(C)(=O)=O	< 5.00
CSc1c(C(C)=O)c(=O)c2c(Cl)ccc(Br)c2n1S(=O)(=O)c1ccc([N+](=O)[O-])cc1	< 5.00
CC(=O)c1c([S+](C)[O-])n(S(=O)(=O)c2ccc(C(C)(C)C)cc2)c2c(Br)ccc(Cl)c2c1=O (stereo not shown)	< 5.70
CC(=O)c1c([S+]([O-])Cc2ccc(C(F)(F)F)o2)[nH]c2c(Br)ccc(Cl)c2c1=O (stereo not shown)	5.93
CC(=O)c1c(SCc2cc(F)cc(F)c2)[nH]c2c(Br)ccc(Cl)c2c1=O	< 5.00
CC(=O)c1c([S+]([O-])Cc2cc(F)cc(F)c2)[nH]c2c(Br)ccc(Cl)c2c1=O (stereo not shown)	< 5.70
CC(=O)c1c([S+]([O-])Cc2cc(Cl)ccc2Cl)[nH]c2c(Br)ccc(Cl)c2c1=O (stereo not shown)	< 5.70
CSc1[nH]c2c(Br)ccc(Cl)c2c(=O)c1C(C)=O	< 5.00
CC(=O)c1c([S+]([O-])Cc2cc(C)on2)[nH]c2c(Br)ccc(Cl)c2c1=O (stereo not shown)	5.72
CC(=O)c1c(SCc2ccc([N+](=O)[O-])cc2)[nH]c2c(Br)ccc(Cl)c2c1=O	< 5.00
CC(=O)c1c(S/C=C\C(=O)O)[nH]c2c(Br)ccc(Cl)c2c1=O	< 5.00
CC(C)C(=O)c1c([S+]([O-])Cc2ccc(SC(F)(F)F)cc2)[nH]c2c(F)ccc(F)c2c1=O (stereo not shown)	< 5.00
CCS(=O)(=O)n1c([S+](C)[O-])c(C(C)=O)c(=O)c2c(Cl)ccc(Br)c21 (stereo not shown)	< 5.00
